The measurements presented in this section are drawn from ChEMBL document CHEMBL1201862.

Recorded GI50 by entry
Tested on: DMS-273
test method notes: NCI tumour cell line growth inhibition, 48 h
Structures can show the parent of a compound that is named as a salt. Calls of active or inactive are those of the source. Rule as the data show it: active = GI50 up to about 1.1 µM and inactive = higher.

Previously resolved entries follow.
1. CCOC(=O)/C(O)=C(/C(=O)OC)c1ccc(Cl)cc1 = > 100 µM (inactive)
2. CSc1nc(C)cc(=O)n1C1OC(COC(C)=O)C(OC(C)=O)C(OC(C)=O)C1OC(C)=O (stereo unspecified) = > 100 µM (inactive)
3. CCCCCCCCCC1CC(=O)Oc2cccc(O)c21 (stereo unspecified) = 4.03 µM (inactive)
4. CCOC(=O)[C@H]1Nc2ccc([N+](=O)[O-])cc2C2c3ccccc3CC21 (stereo partly specified) = 12.6 µM (inactive)
5. O=C(Nc1ccc(Cl)cc1)C1C(=O)C(=O)N(c2ccc(Cl)cc2)C1=O (stereo unspecified) = > 100 µM (inactive)

Ask: Would you mind telling me what GI50 value was observed for COc1ccc(OC)c(/C=C/C(=O)C(C)(C)C)c1 ?
Result: 21.1 µM (inactive)

Ask: Would you mind telling me what GI50 value was observed for COc1cc2cc[n+]3c(C)c4cc(OC)c(OC)cc4c([O-])c3c2cc1OC ?
Result: 53.6 µM (inactive)

Ask: Would you mind telling me what GI50 value was observed for O=C1CCC(O)=C1O ?
Result: > 100 µM (inactive)

Ask: Would you mind telling me what GI50 value was observed for COC(=O)C1CCC(C)CC1=O (stereo unspecified) ?
Result: > 100 µM (inactive)

Ask: Would you mind telling me what GI50 value was observed for NCCSSCCN [CYSTAMINE HYDROCHLORIDE] ?
Result: > 100 µM (inactive)

Ask: Would you mind telling me what GI50 value was observed for COc1cc(CC2c3cc(OC)c(OC)cc3CCN2C)c(C(=O)O)cc1OC (stereo unspecified) ?
Result: > 100 µM (inactive)

====

Tested on: NCI-H23
test method notes: NCI tumour cell line growth inhibition, 48 h
Activity calls are given as the source filed them. No stated cut-off is given here; in the data, active = GI50 up to about 1.1 µM and inactive = higher.
Allowed answers: Yes = active, No = inactive

1. O=C1C(CO)=C[C@H](O)[C@H]2O[C@@H]12 = No
2. CCCCCCCCCC1CC(=O)Oc2cccc(O)c21 (stereo not given) = No
3. O=C1CS(=O)(=O)C(c2cccc(Oc3ccccc3)c2)N1c1cccc(Cl)c1 (stereo not given) = No

Ask: Returns: the outcome recorded for O=C1c2cc([N+](=O)[O-])cnc2S(=O)(=O)N1c1ccc(Br)cc1 in this assay.
Result: No

Ask: Returns: the outcome recorded for Cc1ccc(O)c(C(=O)/C=C/c2ccccc2)c1 in this assay.
Result: No

Ask: Returns: the outcome recorded for Fc1cc(C2=C[C@H](c3ccc(Cl)cc3)NC(=S)N2)c(Cl)cc1Cl in this assay.
Result: No

Ask: Returns: the outcome recorded for O=C(Nc1ccc(Sc2ccc(/N=N/c3c(O)c(S(=O)(=O)O)cc4cc(S(=O)(=O)O)ccc34)cc2)cc1)c1ccc(/N=N/c2c(O)ccc3c(S(=O)(=O)O)cc(S(=O)(=O)O)cc23)cc1 in this assay.
Result: No

Ask: Returns: the outcome recorded for C=C1CC(COc2ccc3ccc(=O)oc3c2)(c2ccccc2)OC1=O (stereo not given) in this assay.
Result: Yes

Ask: Returns: the outcome recorded for NCCOCCOCC(=O)O in this assay.
Result: No

Ask: Returns: the outcome recorded for CC1=CC(C)C/C=C/C2C3OC3(C)C(C)C3C(Cc4c[nH]c5ccccc45)NC(=O)C23C(=O)C=CC(=O)C1O (stereo not given) in this assay.
Result: No

====

Tested on: NCI-H23
test method notes: NCI tumour cell line growth inhibition, 48 h
Active and inactive are the calls of the source. Rule as the data show it: active = GI50 up to about 1.1 µM and inactive = higher.
Allowed answers: active, inactive

1. COc1ccc(/C=C/C(=O)N[C@@H]2C(=O)N3[C@@H]2SC(C)(C)[C@@H]3C(=O)O)cc1OC = inactive
2. C=C1C2C[C@@H]3OC4CC5O[C@]6(CC5OC4C(C)C3OC(=O)CC3CC[C@@H]4OC5C7OC8C[C@](CCC9CC(=C)[C@H](CCC(C[C@H]1C)O2)O9)(OC7C4O3)O[C@@H]85)C[C@@H]1O[C@@]2(CC(C)[C@@H]3OC(CC(=O)CCO)C(O)C[C@@H]3O2)CC(C)[C@@H]1O6 (stereo partly drawn) = active
3. CC(C)C1/C(=N/O)CC(c2ccccc2)N(N=O)C1c1ccccc1 (stereo not drawn) = inactive
4. Cc1n[nH]c(=O)n1/N=C/c1ccc(Cl)cc1 = inactive
5. COc1ccc2c3c([nH]c2c1)[C@H](C=C(C)C)N1C(=O)[C@@H]2CCCN2C(=O)[C@@H]1C3 = inactive

Ask: Returns: the outcome recorded for CSc1nc2c(c(O)c(C)c(=O)n2C2OCC(OC(C)=O)C(OC(C)=O)C2OC(C)=O)c(=O)n1C (stereo not drawn) in this assay.
Result: inactive

Ask: Returns: the outcome recorded for C/C(=C(/C)c1ccc(O)cc1)c1ccc(O)cc1 in this assay.
Result: inactive

Ask: Returns: the outcome recorded for Cc1cc2c(C)n(Cc3ccc(Cl)cc3Cl)nc2c(C(=O)O)c1C in this assay.
Result: inactive

Ask: Returns: the outcome recorded for CCOC(=O)c1c(CN2CCNCC2)nc2ccccc2c1-c1ccccc1 in this assay.
Result: inactive

Ask: Returns: the outcome recorded for O=C(O)Cc1ccc(Oc2nc3ccccc3nc2-c2ccccc2)cc1 in this assay.
Result: inactive

Ask: Returns: the outcome recorded for O=C(CC1C(=O)Nc2ccccc2[S+]1[O-])Nc1cccc(Cl)c1 (stereo not drawn) in this assay.
Result: inactive

Ask: Returns: the outcome recorded for COc1cc2cc[n+]3c(C)c4cc(OC)c(OC)cc4c([O-])c3c2cc1OC in this assay.
Result: inactive

Ask: Returns: the outcome recorded for CNC(=O)CCC(NC(C)=O)C(=O)NC(Cc1ccc(NC(=O)CCCCC(C)=O)cc1)C(=O)NC(CCC(=O)NC)C(=O)NC (stereo not drawn) in this assay.
Result: inactive

Ask: Returns: the outcome recorded for Cc1n[nH]c(=O)n1/N=C/c1ccc([N+](=O)[O-])o1 in this assay.
Result: inactive

Ask: Returns: the outcome recorded for COc1cc2cc3c4c(cc(OC)c(OC)c4c2cc1OC)CCN3C(=O)CCCC(=O)O in this assay.
Result: inactive

Ask: Returns: the outcome recorded for COc1cc2c(c(OC)c1OC)C(=O)[C@H](Br)[C@H]2NC(=O)NCCCl in this assay.
Result: inactive

Ask: Returns: the outcome recorded for Cc1nnc(N/N=C(/C(=O)C(C#N)c2ccc(Cl)cc2)C(C#N)c2ccc(Cl)cc2)n1N (stereo not drawn) in this assay.
Result: inactive

Ask: Returns: the outcome recorded for CCOC(=O)C1(C)CCC(C(=O)OC)C1=O (stereo not drawn) in this assay.
Result: inactive

====

Recorded GI50 by entry
Test system: 786-0
test method notes: NCI tumour cell line growth inhibition, 48 h
The source made the active and inactive calls. Rule as the data show it: active = GI50 up to about 1.1 µM and inactive = higher.

Previously resolved entries follow.
1. C[C@]12CC=CC(=O)[C@@]1(C)CCC(=O)C2 = > 100 µM (inactive)
2. CC[C@]12C=CCN3CC[C@@]4(c5cc(Br)c(OC)cc5N(C)[C@H]4[C@@](O)(C(=O)N[C@@H](Cc4ccc(O)cc4)C(=O)OC)[C@@H]1O)[C@@H]32 = 49.9 µM (inactive)
3. COc1ccc(OC)c(/C=C/C(=O)C(C)(C)C)c1 = 19.5 µM (inactive)
4. CCOC(=O)C(=CNc1ccc(F)c(F)c1)C(=O)OCC = > 100 µM (inactive)
5. O=C1CCC2(O)c3ccccc3C2Cc2ccccc21 (stereo not given) = > 100 µM (inactive)

Ask: Param readout = GI50; param system = 786-0; param query = CN(C)CCOc1ccc([N+](=O)[O-])c2cccnc12 ; response: value
Result: > 100 µM (inactive)

Ask: Param readout = GI50; param system = 786-0; param query = CC1=NNC(=O)C1C1CC(c2c[nH]c3ccccc23)=NN=C1Cl (stereo not given) ; response: value
Result: 49.9 µM (inactive)

Ask: Param readout = GI50; param system = 786-0; param query = C[C@@H](CCO)OC1OC(COC(=O)C(C)(C)C)C(OC(=O)C(C)(C)C)C(OC(=O)C(C)(C)C)C1OC(=O)C(C)(C)C (stereo not given in full) ; response: value
Result: 39.5 µM (inactive)

Ask: Param readout = GI50; param system = 786-0; param query = O=C(O)c1c2c(c(O)c3c1CN(C1CCCCC1)CO3)OCN(C1CCCCC1)C2 ; response: value
Result: 68.4 µM (inactive)

Ask: Param readout = GI50; param system = 786-0; param query = COc1ccc(CC[N+]2(C)COc3cc4oc(=O)cc(C)c4cc3C2)cc1OC (stereo not given) ; response: value
Result: > 100 µM (inactive)
